procedure summary: caspase-8 TRAIL sensitization, hit retest, confirmation, cell-based, NB7+caspase-8, with/without TRAIL, luminescence panel (AID 651596)
measurement conditions: NB7 neuroblastoma + caspase-8, without TRAIL, luminescence viability, without TRAIL, mean of runs, at 10 µM
parameter measured: activity

[[record]]
molecule = "CCCCNC(=O)c1ccc(Cn2c(=S)[nH]c3c([nH]c4ccc(OC)cc43)c2=O)cc1"
experimental_result = "63.2%"

[[record]]
molecule = "CCOc1ccc(-c2nnc(-c3ccccc3)o2)cc1"
experimental_result = "47.3%"

[[record]]
molecule = "CCC(C)c1ccc(O)c(/C=N/O)c1 (centres undefined)"
experimental_result = "56.6%"

[[record]]
molecule = "Cc1ccc(NC(=S)c2nc3ccccc3s2)cc1"
experimental_result = "33.8%"

[[record]]
molecule = "O=C(Nc1ccn(Cc2ccccc2)n1)c1n[nH]c([N+](=O)[O-])c1Cl"
experimental_result = "63%"

[[record]]
molecule = "C=CCN(CC=C)c1cnn(-c2nc3ccccc3[nH]2)c(=O)c1Cl"
experimental_result = "59.7%"

[[record]]
molecule = "COc1cccc2sc3ccc(C#CC4(O)CCCCC4)cc3c(=O)c12"
experimental_result = "45.8%"

[[record]]
molecule = "COc1ccc(/C=C/C(=O)c2c(O)cc(C)oc2=O)c(OC)c1"
experimental_result = "92.5%"

[[record]]
molecule = "CCOc1ccc(C(=O)O/N=C(\\N)c2ccccn2)cc1OCC"
experimental_result = "88.9%"


----------
procedure summary: cytotoxicity in PPC-1 cells, confirmation, cytotoxicity control for TRAIL apoptosis potentiator project, cell-based, ATP content luminescence (AID 1447);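 further: 0% = DMSO-treated cells and 100% = wells holding medium but no cells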
measurement conditions: PPC-1 viability, ATPlite luminescence, overnight; at 5 µM; stronger effect = higher value
The list shows a part of the results.
parameter measured: cytotoxicity (%)

[[record]]
compound = "O=C(O)CCCC(=O)Nc1ccccc1-n1ccnc1"
parameter_measured = "cytotoxicity"
experimental_result = -3.3

[[record]]
compound = "COC(=O)c1nc(NC(=O)c2ccc(Cl)cc2)n[nH]1"
parameter_measured = "cytotoxicity"
experimental_result = 12.1

[[record]]
compound = "CC(Nc1nc(N2CCCC2)nc2ccccc12)c1ccccc1 (stereo not drawn)"
parameter_measured = "cytotoxicity"
experimental_result = 8.3


----------
target or system: Tumor necrosis factor receptor superfamily member 10B (Homo sapiens)
procedure summary: caspase-8 TRAIL sensitization, hit retest, confirmation, cell-based, NB7+caspase-8, with/without TRAIL, luminescence panel (AID 651596)
measurement conditions: NB7 neuroblastoma + caspase-8, TRAIL sensitization, luminescence viability, with TRAIL, mean of runs, at 10 µM, stronger effect = higher value
Some molecules, each annotated with its measured activity.
parameter measured: activity

[[record]]
molecule = "Cn1c(=O)c2c(SCC(=O)Nc3ccccc3F)nc(C3CC3)nc2n(C)c1=O"
experimental_result = "50.8%"

[[record]]
molecule = "COc1cc2c(cc1OC)C(c1ccccc1)N(C(=O)CCl)CC2 (centres undefined)"
experimental_result = "98.3%"

[[record]]
molecule = "Nc1nc(CCl)nc(Nc2cccc3ccccc23)n1"
experimental_result = "99.8%"

[[record]]
molecule = "CCc1nnc(NC(=O)CSc2nc3c(cc2C#N)CCCC3)s1"
experimental_result = "62.8%"

[[record]]
molecule = "Cc1ccc(/C(N)=N/OC(=O)c2ccc(Cl)cc2Cl)cc1"
experimental_result = "97%"

[[record]]
molecule = "CSc1ccc(/C=C/C(=O)c2c(O)cc(C)oc2=O)cc1"
experimental_result = "78.7%"

[[record]]
molecule = "CCCCCCCC(=O)Nc1ccc(C(=O)N/N=C/c2cccc([N+](=O)[O-])c2)cc1"
experimental_result = "69.3%"

[[record]]
molecule = "NC(=O)c1ccsc1NC(=O)c1ccc2c(c1)CCCC2"
experimental_result = "89.5%"

[[record]]
molecule = "O=C(Nc1nc2ccccc2[nH]1)C12CC3CC(CC(C3)C1)C2"
experimental_result = "66.2%"

[[record]]
molecule = "O=C(Nc1ccc2c(c1)OCCO2)c1cccc2nc3ccccc3nc12"
experimental_result = "59.7%"

[[record]]
molecule = "COc1ccc(NC(=O)c2cc([N+](=O)[O-])ccc2O)cc1"
experimental_result = "89.8%"

[[record]]
molecule = "COC(=O)c1sc(NC(=S)NC(=O)c2cccc(C)c2)nc1C"
experimental_result = "46.2%"

[[record]]
molecule = "O=C(CCl)Nc1ccc(Oc2cnc3ccccc3n2)cc1"
experimental_result = "97.6%"

[[record]]
molecule = "COc1ccc(C)cc1NC(=O)CN(Cc1nnc(-c2ccc(Cl)cc2)o1)C1CCCC1"
experimental_result = "76.7%"


----------
procedure summary: inhibitors of PAF-induced NFkB signaling in CF airway cells, dose response, cell-based, uHTS hits, panel, cytotoxicity readout (AID 624344)
measurement conditions: CF bronchial epithelial cells, PAF-induced NFkB reporter inhibition, with PAF, run 1; at 79 µM (top of the series) unless noted
parameter measured: inhibition (%)

[[record]]
smiles_text = "C[C@H]1Cn2cnc(C(=O)Nc3cccc(Cl)c3)c2C(=O)N1"
parameter_measured = "inhibition"
quantity_unit = "%"
experimental_result = 105

[[record]]
smiles_text = "O=[N+]([O-])c1ccc(O)c(C2CCCCC2)c1"
parameter_measured = "inhibition"
quantity_unit = "%"
experimental_result = 117

[[record]]
smiles_text = "Oc1ccc(Br)cc1-c1nc2cnccn2c1NC1CCCC1"
parameter_measured = "inhibition"
quantity_unit = "%"
experimental_result = 101

[[record]]
smiles_text = "COc1ccc(-c2cc(=O)oc3c(C)c(OC(=O)c4cccs4)ccc23)cc1"
parameter_measured = "inhibition"
quantity_unit = "%"
experimental_result = 66.8

[[record]]
smiles_text = "CCOc1ccccc1NC(=S)Nc1ccc2cn[nH]c2c1"
parameter_measured = "inhibition"
quantity_unit = "%"
experimental_result = 104


----------
Some molecules, each annotated with its measured inhibition.
target or system: PEG-3 (UniProt Q6IN02)
Sequence (Q6IN02 whole entry, looked up): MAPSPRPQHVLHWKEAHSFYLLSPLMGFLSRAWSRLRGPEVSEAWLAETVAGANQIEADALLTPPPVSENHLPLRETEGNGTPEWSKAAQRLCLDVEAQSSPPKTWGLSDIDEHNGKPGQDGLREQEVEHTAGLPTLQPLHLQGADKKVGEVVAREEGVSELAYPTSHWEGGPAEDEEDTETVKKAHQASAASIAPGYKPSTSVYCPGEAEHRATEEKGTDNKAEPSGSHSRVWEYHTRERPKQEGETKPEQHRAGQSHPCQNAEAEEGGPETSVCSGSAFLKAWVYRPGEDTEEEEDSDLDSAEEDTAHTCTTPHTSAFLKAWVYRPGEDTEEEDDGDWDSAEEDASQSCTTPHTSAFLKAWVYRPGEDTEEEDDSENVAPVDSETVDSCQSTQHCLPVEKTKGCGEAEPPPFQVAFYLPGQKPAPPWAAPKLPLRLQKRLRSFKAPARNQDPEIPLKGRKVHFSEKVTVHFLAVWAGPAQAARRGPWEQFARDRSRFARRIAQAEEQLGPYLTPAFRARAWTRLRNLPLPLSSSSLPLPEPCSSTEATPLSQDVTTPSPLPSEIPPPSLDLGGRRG
procedure summary: Peg3 promoter luciferase inhibitors, potency, dose response, cell-based, HeLa, CREF/GAPDH counter-screen panel (AID 624167)
measurement conditions: CREF/GAPDH counter-screens; HeLa PEG-Prom luciferase reporter, overnight, run 1, dose range 1, at 100 µM (top of the series) unless noted
parameter measured: inhibition (%)

[[record]]
molecule = "CCOc1cccc2sc(N(CCCN(C)C)C(=O)c3ccc(S(=O)(=O)N(CC)Cc4ccccc4)cc3)nc12"
target_or_system = "PEG-3 (UniProt Q6IN02)"
quantity_unit = "%"
experimental_result = 102

[[record]]
molecule = "CCOc1cc(/C=N/Nc2nc(-c3cccc(S(=O)(=O)N4CCCC4)c3)cs2)ccc1O"
target_or_system = "PEG-3 (UniProt Q6IN02)"
quantity_unit = "%"
experimental_result = 77.8

[[record]]
molecule = "O=C(O)c1cccc(COc2ccccc2Cl)c1"
target_or_system = "PEG-3 (UniProt Q6IN02)"
quantity_unit = "%"
experimental_result = 96.7

[[record]]
molecule = "CCOC(=O)c1c(NC(C)=O)sc2c(OCC(O)CN(CC)CC)c(Br)ccc12 (centres undefined)"
target_or_system = "PEG-3 (UniProt Q6IN02)"
quantity_unit = "%"
experimental_result = 102

[[record]]
molecule = "CCOc1cc(CNCCO)cc(Br)c1OCc1ccccc1Cl"
target_or_system = "PEG-3 (UniProt Q6IN02)"
quantity_unit = "%"
experimental_result = 100

[[record]]
molecule = "CC1CCN(c2ccc(-c3cccs3)nn2)CC1"
target_or_system = "PEG-3 (UniProt Q6IN02)"
quantity_unit = "%"
experimental_result = 90.2

[[record]]
molecule = "Cc1cc(C(=O)COC(=O)c2ccccc2O)c(C)n1Cc1cccs1"
target_or_system = "PEG-3 (UniProt Q6IN02)"
quantity_unit = "%"
experimental_result = 88.8

[[record]]
molecule = "NC(N)=N/N=C/c1cccc(Cl)c1Cl"
target_or_system = "PEG-3 (UniProt Q6IN02)"
quantity_unit = "%"
experimental_result = 97.9

[[record]]
molecule = "Cc1nc(-c2ccc(NC(=O)c3ccco3)cc2)cs1"
target_or_system = "PEG-3 (UniProt Q6IN02)"
quantity_unit = "%"
experimental_result = 98.9

[[record]]
molecule = "O=S(=O)(Nc1cccc2ncccc12)c1cccs1"
target_or_system = "PEG-3 (UniProt Q6IN02)"
quantity_unit = "%"
experimental_result = 94.5

[[record]]
molecule = "Cc1ccc(C)c(CN2CCC(CNC(=O)Nc3ccc(F)c(Cl)c3)CC2)c1"
target_or_system = "PEG-3 (UniProt Q6IN02)"
quantity_unit = "%"
experimental_result = 102

[[record]]
molecule = "O=c1[nH]c(=O)n(C2OC(CO)C(O)C2O)cc1F (centres undefined)"
target_or_system = "PEG-3 (UniProt Q6IN02)"
quantity_unit = "%"
experimental_result = 68.7

[[record]]
molecule = "CCN1CCN(c2nc(Nc3cc(OC)ccc3OC)nc(Nc3cc(OC)ccc3OC)n2)CC1"
target_or_system = "PEG-3 (UniProt Q6IN02)"
quantity_unit = "%"
experimental_result = 47.9

[[record]]
molecule = "COc1ccc(C(=O)Nc2cccc(C(=O)N/N=C/c3ccc(OC)cc3OC)c2)cc1"
target_or_system = "PEG-3 (UniProt Q6IN02)"
quantity_unit = "%"
experimental_result = 84.1

[[record]]
molecule = "CC(C)c1ccc(-c2nc3ccccc3s2)cc1"
target_or_system = "PEG-3 (UniProt Q6IN02)"
quantity_unit = "%"
experimental_result = 99.1

[[record]]
molecule = "Cc1ccc(-c2nc(-c3ccccn3)no2)cc1"
target_or_system = "PEG-3 (UniProt Q6IN02)"
quantity_unit = "%"
experimental_result = 99.3

[[record]]
molecule = "Cc1ccc(NCCN(C)C)c2c(=O)c3cc(O)ccc3sc12"
target_or_system = "PEG-3 (UniProt Q6IN02)"
quantity_unit = "%"
experimental_result = 97.5

[[record]]
molecule = "CNC(=O)c1ccsc1NC(=O)c1ccc(S(=O)(=O)N2CCc3ccccc32)cc1"
target_or_system = "PEG-3 (UniProt Q6IN02)"
quantity_unit = "%"
experimental_result = 65

[[record]]
molecule = "CN=c1scc(-c2cccs2)n1/N=C/c1ccccc1O"
target_or_system = "PEG-3 (UniProt Q6IN02)"
quantity_unit = "%"
experimental_result = 93.6

[[record]]
molecule = "O=S(=O)(N[C@H]1C[C@@H](NS(=O)(=O)OCC(Cl)(Cl)Cl)C2CCCCC21)OCC(Cl)(Cl)Cl (some centres undefined)"
target_or_system = "PEG-3 (UniProt Q6IN02)"
quantity_unit = "%"
experimental_result = 99.2

[[record]]
molecule = "COc1ccc(-n2ncc3c(N(C)C4CCCCC4)ncnc32)cc1"
target_or_system = "PEG-3 (UniProt Q6IN02)"
quantity_unit = "%"
experimental_result = 96.6

[[record]]
molecule = "CN(C)CCCN1c2ccccc2Sc2ccc3ccccc3c21"
target_or_system = "PEG-3 (UniProt Q6IN02)"
quantity_unit = "%"
experimental_result = 94.6

[[record]]
molecule = "C=CCN=C1NN=C(c2cc(C)n(CC=C)c2C)CS1"
target_or_system = "PEG-3 (UniProt Q6IN02)"
quantity_unit = "%"
experimental_result = 93.6

[[record]]
molecule = "COc1cc(/C=C/C(=O)N2CCC=CC2=O)cc(OC)c1OC"
target_or_system = "PEG-3 (UniProt Q6IN02)"
quantity_unit = "%"
experimental_result = 99.1

[[record]]
molecule = "CCN(CCO)c1ccc(N=Nc2cc(C)[nH]n2)cc1"
target_or_system = "PEG-3 (UniProt Q6IN02)"
quantity_unit = "%"
experimental_result = 95.5

[[record]]
molecule = "O=C(CCSc1nc2ccccc2s1)N/N=C/c1c(O)ccc2ccccc12"
target_or_system = "PEG-3 (UniProt Q6IN02)"
quantity_unit = "%"
experimental_result = 58.9

[[record]]
molecule = "CN(C)CCNc1ncnc2c1sc1nc(N3CCCC3)c3c(c12)CC(C)(C)OC3"
target_or_system = "PEG-3 (UniProt Q6IN02)"
quantity_unit = "%"
experimental_result = 99.7

[[record]]
molecule = "CCCOc1ccc2cc(-c3ccccn3)c(=O)oc2c1"
target_or_system = "PEG-3 (UniProt Q6IN02)"
quantity_unit = "%"
experimental_result = 93.5

[[record]]
molecule = "CCCCCc1ccc(OCCCC[n+]2cccc(C)c2)c(CCCCC)c1"
target_or_system = "PEG-3 (UniProt Q6IN02)"
quantity_unit = "%"
experimental_result = 98.6

[[record]]
molecule = "COc1ccc(Nc2oc(COc3ccccc3OC)nc2C#N)cc1"
target_or_system = "PEG-3 (UniProt Q6IN02)"
quantity_unit = "%"
experimental_result = 69.9

[[record]]
molecule = "COc1nc(N)c(C#N)c(-c2ccc(N(C)CCC#N)cc2)c1C#N"
target_or_system = "PEG-3 (UniProt Q6IN02)"
quantity_unit = "%"
experimental_result = 52.9

[[record]]
molecule = "c1ccc(-c2cc(-c3nc4ccccc4[nH]3)c3ccccc3n2)cc1"
target_or_system = "PEG-3 (UniProt Q6IN02)"
quantity_unit = "%"
experimental_result = 86.8

[[record]]
molecule = "COc1ccc(/C=C/c2nc3ccccc3n2C)cc1"
target_or_system = "PEG-3 (UniProt Q6IN02)"
quantity_unit = "%"
experimental_result = 99.2

[[record]]
molecule = "Cc1ccc(N2CC(C(=O)Nc3nccs3)CC2=O)cc1Cl (centres undefined)"
target_or_system = "PEG-3 (UniProt Q6IN02)"
quantity_unit = "%"
experimental_result = 99.5

